# system: human TLR9 (Homo sapiens, UniProt Q9NR96)
# Sequence (Q9NR96 26-1032): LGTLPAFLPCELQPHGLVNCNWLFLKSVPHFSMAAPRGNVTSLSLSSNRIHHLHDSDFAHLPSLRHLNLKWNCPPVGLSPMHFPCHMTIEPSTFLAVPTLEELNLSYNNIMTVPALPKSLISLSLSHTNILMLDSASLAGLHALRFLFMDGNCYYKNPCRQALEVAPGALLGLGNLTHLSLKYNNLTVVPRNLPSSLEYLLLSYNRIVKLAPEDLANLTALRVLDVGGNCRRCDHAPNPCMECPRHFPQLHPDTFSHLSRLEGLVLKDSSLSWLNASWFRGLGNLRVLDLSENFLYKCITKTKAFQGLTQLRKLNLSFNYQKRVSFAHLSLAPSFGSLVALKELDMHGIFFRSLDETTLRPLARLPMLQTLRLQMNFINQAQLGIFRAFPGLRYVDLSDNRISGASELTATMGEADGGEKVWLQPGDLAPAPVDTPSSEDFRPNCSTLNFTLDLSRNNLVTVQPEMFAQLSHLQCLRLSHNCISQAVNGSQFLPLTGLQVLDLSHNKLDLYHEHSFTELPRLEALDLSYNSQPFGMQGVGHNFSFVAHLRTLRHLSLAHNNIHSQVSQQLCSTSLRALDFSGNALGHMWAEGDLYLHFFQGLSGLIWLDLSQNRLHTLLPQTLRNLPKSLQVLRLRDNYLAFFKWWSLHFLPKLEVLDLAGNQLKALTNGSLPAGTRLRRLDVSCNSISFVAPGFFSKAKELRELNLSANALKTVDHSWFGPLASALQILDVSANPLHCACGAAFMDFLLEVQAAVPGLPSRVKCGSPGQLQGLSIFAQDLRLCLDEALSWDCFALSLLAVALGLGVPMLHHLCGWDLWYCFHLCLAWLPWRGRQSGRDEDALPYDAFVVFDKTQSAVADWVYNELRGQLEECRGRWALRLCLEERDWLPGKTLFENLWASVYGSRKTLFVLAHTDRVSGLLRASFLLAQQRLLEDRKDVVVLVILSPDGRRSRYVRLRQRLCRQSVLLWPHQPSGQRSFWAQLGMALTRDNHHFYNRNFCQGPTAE
# assay_name: TLR9 inhibition reporter assay (HEK-Blue cells, SEAP reporter, ODN2006 stimulation)
# test_context: HEK-Blue cells overexpressing human TLR9, SEAP reporter, ODN2006 5 nM
measured_metric: IC50 (µM)
Please give a number only; it is taken to be in µM.

Below, each entry is followed by its recorded IC50 result.
CCN1CCc2nc(-c3n[nH]c(-c4cc(C)c5ncnn5c4)c3C(C)C)ncc2C1 | 19.8
Cc1cc(-c2[nH]nc(C(=O)N[C@H]3CC[C@H](N(CC4CC4)CC4CC4)CC3)c2C(C)C)cn2ncnc12 | 3.6
COc1cc(-c2[nH]nc(-c3cnc(C4CCN(C)CC4)cn3)c2C(C)C)cn2ncnc12 | 5.88

Please examine the following record next.
Please report the recorded IC50 for "Cc1cc(-c2[nH]nc(C(=O)NCCc3ccccn3)c2C(C)C)cn2ncnc12" . 0.287
